Tested on: Mycobacterium tuberculosis
procedure.summary: Antimycobacterial activity against isoniazid/rifampicin-resistant Mycobacterium tuberculosis isolate 16995 after 7 days by Alamar blue assay
Assay type: functional
experimental.setup: isolate 16995, 168 h
Definition: the class of an entry is the range in b0 = under 0.08 µg/mL, b1 = from 0.08 µg/mL up to 0.3 µg/mL, b2 = 0.3 µg/mL and over that contains its MIC.

Input line: Form: Item = `COc1ccc(CN2Cc3ccc(CNC(=O)c4cc([N+](=O)[O-])cc([N+](=O)[O-])c4)cc3C2)cc1` ; Class = ?
Output line: b2

Input line: Hi there! Could you help me figure out the category for `O=C(NCc1ccc2c(c1)CCN(Cc1ccc(Cl)cc1)C2)c1cc([N+](=O)[O-])cc([N+](=O)[O-])c1` please?
Output line: b0

Input line: Please classify: `O=C(NCc1ccc2c(c1)CCN(Cc1cccc(F)c1)C2)c1cc([N+](=O)[O-])cc([N+](=O)[O-])c1`
Output line: b0

Input line: Band for `O=C(NCc1ccc2c(c1)CN(Cc1ccc(OC(F)(F)F)cc1)C2)c1cc([N+](=O)[O-])cc([N+](=O)[O-])c1` ?
Output line: b2

Input line: Quick check: band for `O=C(NCc1ccc2c(c1)CN(Cc1ccc(F)cc1)C2)c1cc([N+](=O)[O-])cc([N+](=O)[O-])c1`
Output line: b1

Input line: Class? Entry: `NNC(=O)c1ccncc1`
Output line: b2

Input line: Which of the defined bands does the recorded MIC of `CO[C@H]1/C=C/O[C@@]2(C)Oc3c(C)c(O)c4c(O)c(c(/C=N/N5CCN(C)CC5)c(O)c4c3C2=O)NC(=O)/C(C)=C\C=C\[C@H](C)[C@H](O)[C@@H](C)[C@@H](O)[C@@H](C)[C@H](OC(C)=O)[C@@H]1C` sit within?
Output line: b2

Input line: In plain terms, what class is `O=C(NCc1ccc2c(c1)CNC2)c1cc([N+](=O)[O-])cc([N+](=O)[O-])c1` ?
Output line: b2

Input line: Hi there! Could you help me figure out the category for `O=C(NCc1ccc2c(c1)CN(c1ccc(F)cc1)C2)c1cc([N+](=O)[O-])cc([N+](=O)[O-])c1` please?
Output line: b1

Input line: Please let me know in which category the item `O=c1nc(N2CCN(CC3CCCCC3)CC2)sc2c([N+](=O)[O-])cc(C(F)(F)F)cc12` belongs.
Output line: b0

* * *

Tested on: Mycobacterium tuberculosis
procedure.summary: Antimycobacterial activity against isoniazid/rifampicin-resistant Mycobacterium tuberculosis isolate 16833 after 7 days by Alamar blue assay
Type: functional
experimental.setup: isolate 16833, 168 h
assay.metric: MIC (µg/mL)
Express your answer in µg/mL, writing the number without its unit.

Input line: What value of MIC has been reported for the following molecule? `O=C(NCc1ccc2c(c1)CN(Cc1ccc(F)cc1)C2)c1cc([N+](=O)[O-])cc([N+](=O)[O-])c1`
Output line: 0.073

Input line: Which MIC reading was recorded for the molecule `O=C(NCc1ccc2c(c1)CN(Cc1ccc(OC(F)(F)F)cc1)C2)c1cc([N+](=O)[O-])cc([N+](=O)[O-])c1` ?
Output line: 0.565

Input line: Value lookup for MIC; key = `O=C(NCc1ccc2c(c1)CCN(Cc1cccc(F)c1)C2)c1cc([N+](=O)[O-])cc([N+](=O)[O-])c1`
Output line: 0.074
